Property: Emax; scope: individual compounds
System: SK-N-SH human neuroblastoma cells
measurementProtocol: Serum Deprivation/JC-1 Mitochondrial Membrane Potential (MMP) Assay
Format: cell-based
experimentalParameters: Homo sapiens, SK-N-SH, percent maximal intensity in JC-1 ratio normalized to peak value for 10 μM dimebolin, serum deprivation, read-out: JC-1 max %
resultType: Emax (%)

[
  {
    "compound": "Brc1ccccc1CN1Cc2ccccc2N2CCN(Cc3ccccc3)CC2C1 (stereo not drawn) [Example 132]",
    "reportedMeasurement": 192
  },
  {
    "compound": "CC(C)(C)OC(=O)N1CCN2c3ccccc3CNC(=O)C2C1 (stereo not drawn) [Example 1]",
    "reportedMeasurement": 88
  },
  {
    "compound": "O=C(Cc1ccc(Cl)cc1)N1CCC2CN(Cc3ccccc3)CCN2c2ccccc21 (stereo not drawn) [Example 27]",
    "reportedMeasurement": 149
  },
  {
    "compound": "Cc1cc(C(=O)N2Cc3ccccc3N3CCN(Cc4ccccc4)CC3C2)c(C)[nH]1 (stereo not drawn) [Example 96]",
    "reportedMeasurement": 180
  },
  {
    "compound": "Clc1ccc(CN2Cc3ccccc3N3CCN(Cc4ccccc4)CC3C2)cc1 (stereo not drawn) [Example 130]",
    "reportedMeasurement": 181
  },
  {
    "compound": "Cc1ccc(CNC(=O)N2Cc3ccccc3N3CCN(Cc4ccccc4)CC3C2)o1 (stereo not drawn) [Example 156]",
    "reportedMeasurement": 152
  },
  {
    "compound": "FC(F)(F)c1ccc(CN2Cc3ccccc3N3CCN(Cc4ccccc4)CC3C2)cn1 (stereo not drawn) [Example 35]",
    "reportedMeasurement": 159
  },
  {
    "compound": "Clc1ccc(CCN2CCC3CN(Cc4ccccc4)CCN3c3ncccc32)cc1 (stereo not drawn) [Example 54]",
    "reportedMeasurement": 177
  },
  {
    "compound": "c1ccc(CN2CCN3c4ccccc4CN(Cc4cccc5ccccc45)CC3C2)cc1 (stereo not drawn) [Example 138]",
    "reportedMeasurement": 203
  }
]

---

Property: Emax; scope: individual compounds
Test system: SK-N-SH human neuroblastoma cells
measurementProtocol: Serum Deprivation/JC-1 Mitochondrial Membrane Potential (MMP) Assay
Format: cell-based
experimentalParameters: Homo sapiens, SK-N-SH, percent maximal intensity in JC-1 ratio normalized to peak value for 10 μM dimebolin, serum deprivation, read-out: JC-1 max %
Source text: The method also involves a high-throughput assay using serum-deprivation conditions involving neuronal cells to screen for compounds that increase or preserve mitochondrial membrane potential. Such compounds can be found to aid in rescuing cells from energy-depletion that occurs in several neurodegenerative states. […]
resultType: Emax (%)

[
  {
    "compound": "O=C(c1ccncc1)N1Cc2ccccc2N2CCN(Cc3ccccc3)CC2C1 (stereo not drawn)",
    "unitSpec": "%",
    "reportedMeasurement": 192
  },
  {
    "compound": "c1ccc(CN2CCN3c4ncccc4NCCC3C2)cc1 (stereo not drawn)",
    "unitSpec": "%",
    "reportedMeasurement": 100
  },
  {
    "compound": "c1ccc(CN2CCN3c4ccccc4CN(Cc4ccccn4)CC3C2)cc1 (stereo not drawn)",
    "unitSpec": "%",
    "reportedMeasurement": 221
  },
  {
    "compound": "Cn1cccc1C(=O)N1Cc2ccccc2N2CCN(Cc3ccccc3)CC2C1 (stereo not drawn)",
    "unitSpec": "%",
    "reportedMeasurement": 197
  },
  {
    "compound": "c1ccc(CN2CCN3c4ccccc4CN(Cc4ccc5ccccc5n4)CC3C2)cc1 (stereo not drawn)",
    "unitSpec": "%",
    "reportedMeasurement": 150
  },
  {
    "compound": "CCOc1ccc(CN2Cc3ccccc3N3CCN(Cc4ccccc4)CC3C2)cc1 (stereo not drawn)",
    "unitSpec": "%",
    "reportedMeasurement": 167
  },
  {
    "compound": "CN1Cc2ccccc2N2CCN(Cc3ccccc3)CC2C1 (stereo not drawn)",
    "unitSpec": "%",
    "reportedMeasurement": 204
  },
  {
    "compound": "O=C(c1ccc(Br)cc1)N1CCC2CN(Cc3ccccc3)CCN2c2ccccc21 (stereo not drawn)",
    "unitSpec": "%",
    "reportedMeasurement": 186
  },
  {
    "compound": "O=C(Cc1ccc(Cl)cc1)N1CCC2CN(Cc3ccccc3)CCN2c2ncccc21 (stereo not drawn)",
    "unitSpec": "%",
    "reportedMeasurement": 210
  },
  {
    "compound": "O=C(c1cnccn1)N1Cc2ccccc2N2CCN(Cc3ccccc3)CC2C1 (stereo not drawn)",
    "unitSpec": "%",
    "reportedMeasurement": 198
  },
  {
    "compound": "c1ccc(CN2CCN3c4ccccc4CN(Cc4cnc5ccccc5c4)CC3C2)cc1 (stereo not drawn)",
    "unitSpec": "%",
    "reportedMeasurement": 192
  },
  {
    "compound": "O=C(N1CCOCC1)N1Cc2ccccc2N2CCN(S(=O)(=O)c3ccccc3)CC2C1 (stereo not drawn)",
    "unitSpec": "%",
    "reportedMeasurement": 129
  },
  {
    "compound": "Clc1ccc(CCN2CCC3CN(Cc4ccccc4)CCN3c3ccccc32)cc1 (stereo not drawn)",
    "unitSpec": "%",
    "reportedMeasurement": 291
  },
  {
    "compound": "O=C(N1CCCCC1)N1Cc2ccccc2N2CCN(Cc3ccccc3)CC2C1 (stereo not drawn)",
    "unitSpec": "%",
    "reportedMeasurement": 251
  },
  {
    "compound": "N#Cc1cccc(CN2Cc3ccccc3N3CCN(Cc4ccccc4)CC3C2)c1 (stereo not drawn)",
    "unitSpec": "%",
    "reportedMeasurement": 182
  },
  {
    "compound": "FC(F)(F)c1ccc(CN2Cc3ccccc3N3CCN(Cc4ccccc4)CC3C2)cc1 (stereo not drawn)",
    "unitSpec": "%",
    "reportedMeasurement": 168
  },
  {
    "compound": "c1ccc(CN2CCN3c4ccccc4CN(Cc4ccnc5ccccc45)CC3C2)cc1 (stereo not drawn)",
    "unitSpec": "%",
    "reportedMeasurement": 137
  },
  {
    "compound": "O=C(NC1CCC1)N1Cc2ccccc2N2CCN(Cc3ccccc3)CC2C1 (stereo not drawn)",
    "unitSpec": "%",
    "reportedMeasurement": 173
  },
  {
    "compound": "c1ccc(CN2CCN3c4ccccc4CN(c4ccccn4)CC3C2)cc1 (stereo not drawn)",
    "unitSpec": "%",
    "reportedMeasurement": 131
  },
  {
    "compound": "COCCCNC(=O)N1Cc2ccccc2N2CCN(Cc3ccccc3)CC2C1 (stereo not drawn)",
    "unitSpec": "%",
    "reportedMeasurement": 181
  },
  {
    "compound": "O=C(NCC(=O)N1Cc2ccccc2N2CCN(Cc3ccccc3)CC2C1)c1ccco1 (stereo not drawn)",
    "unitSpec": "%",
    "reportedMeasurement": 165
  },
  {
    "compound": "O=C(NCC1CC1)N1Cc2ccccc2N2CCN(Cc3ccccc3)CC2C1 (stereo not drawn)",
    "unitSpec": "%",
    "reportedMeasurement": 245
  },
  {
    "compound": "Oc1ccc(CN2Cc3ccccc3N3CCN(Cc4ccccc4)CC3C2)cc1 (stereo not drawn)",
    "unitSpec": "%",
    "reportedMeasurement": 240
  },
  {
    "compound": "Cc1ccccc1CN1Cc2ccccc2N2CCN(Cc3ccccc3)CC2C1 (stereo not drawn)",
    "unitSpec": "%",
    "reportedMeasurement": 144
  },
  {
    "compound": "O=C(c1ccc(F)cc1)N1Cc2ccccc2N2CCN(Cc3ccccc3)CC2C1 (stereo not drawn)",
    "unitSpec": "%",
    "reportedMeasurement": 248
  },
  {
    "compound": "c1ccc(CN2CCN3c4ccccc4CN(Cc4ccncc4)CC3C2)cc1 (stereo not drawn)",
    "unitSpec": "%",
    "reportedMeasurement": 216
  },
  {
    "compound": "O=C1NCc2ccccc2N2CCN(Cc3ccc(F)cc3)CC12 (stereo not drawn)",
    "unitSpec": "%",
    "reportedMeasurement": 27
  },
  {
    "compound": "CC1(C)C(C(=O)N2CCC3CN(Cc4ccccc4)CCN3c3ncccc32)C1(C)C (stereo not drawn)",
    "unitSpec": "%",
    "reportedMeasurement": 215
  },
  {
    "compound": "O=C(c1ccncc1)N1CCC2CN(Cc3ccccc3)CCN2c2ccccc21 (stereo not drawn)",
    "unitSpec": "%",
    "reportedMeasurement": 115
  },
  {
    "compound": "O=C(N1CCOCC1)N1Cc2ccccc2N2CCN(Cc3ccccc3)CC2C1 (stereo not drawn)",
    "unitSpec": "%",
    "reportedMeasurement": 203
  },
  {
    "compound": "Fc1cc(F)cc(CN2Cc3ccccc3N3CCN(Cc4ccccc4)CC3C2)c1 (stereo not drawn)",
    "unitSpec": "%",
    "reportedMeasurement": 166
  },
  {
    "compound": "Cc1ccc(CN2Cc3ccccc3N3CCN(Cc4ccccc4)CC3C2)cc1 (stereo not drawn)",
    "unitSpec": "%",
    "reportedMeasurement": 143
  },
  {
    "compound": "O=C(Cc1ccc(Cl)nc1)N1Cc2ccccc2N2CCN(Cc3ccccc3)CC2C1 (stereo not drawn)",
    "unitSpec": "%",
    "reportedMeasurement": 224
  },
  {
    "compound": "Ic1ccc(CN2Cc3ccccc3N3CCN(Cc4ccccc4)CC3C2)cc1 (stereo not drawn)",
    "unitSpec": "%",
    "reportedMeasurement": 192
  },
  {
    "compound": "Fc1ccc(CN2CCN3c4ccccc4CN(Cc4ccc(Br)cc4)C[C@@H]3C2)cc1 (single isomer, unassigned)",
    "unitSpec": "%",
    "reportedMeasurement": 161
  },
  {
    "compound": "O=C(c1ccn[nH]1)N1Cc2ccccc2N2CCN(Cc3ccccc3)CC2C1 (stereo not drawn)",
    "unitSpec": "%",
    "reportedMeasurement": 218
  }
]
